Measured values drawn from paper PMC9835529 for this set.

system: Lanosterol 14α-demethylase (LMD, CYP51A1); experiment: LDM (CYP51A1) inhibition by LC-MS-MS quantification of ergosterol level; format: cell-based; details: C. krusei, 0.06 μg/mL
Entries annotated with measured CYP51A1 Inhibition%
Note: unit % is implicit; provide only the numeric part.

// solved cases for CYP51A1 Inhibition% follow
- molecule: "COc1ccc2nc(Cl)c(C=NNc3nc(-c4cccc(Cl)c4)cs3)cc2c1 [4h]"
  CYP51A1 Inhibition% [%]: 45.530
- molecule: "OC(Cn1cncn1)(Cn1cncn1)c1ccc(F)cc1F [fluconazole, reference compound]"
  CYP51A1 Inhibition% [%]: 43.378
- molecule: "COc1ccc2nc(Cl)c(C=NNc3nc(-c4cccc5ccccc45)cs3)cc2c1 [4m]"
  CYP51A1 Inhibition% [%]: 48.431
- molecule: "CC(=O)N1CCN(c2ccc(OCC3COC(Cn4ccnc4)(c4ccc(Cl)cc4Cl)O3)cc2)CC1 (centres unmarked) [ketoconazole, reference compound]"
  CYP51A1 Inhibition% [%]: 52.865

For reference, reported CYP51A1 Inhibition% for COc1ccc2nc(Cl)c(/C=N/Nc3nc(-c4cccc([N+](=O)[O-])c4)cs3)cc2c1 [4i] stands at 11.662
